The measurements presented in this section are drawn from patent US8030321B2.

Field: Ki. Provide a value for each of the compounds that follow.
target: human histamine H4 receptor (Homo sapiens, UniProt Q9H3N8); construct: expressed in transfected cells; host or cells: SK-N-MC cells or COS7 cells, transiently transfected; cell membranes used; test: Binding Assay on Recombinant Human Histamine H4 Receptor; settings: competition binding with 3H-histamine (5 nM), membranes of SK-N-MC or COS7 cells expressing human H4 receptor; Cheng-Prusoff, KD 5 nM; average of results obtained; read-out: Ki
Sequence (Q9H3N8 whole entry): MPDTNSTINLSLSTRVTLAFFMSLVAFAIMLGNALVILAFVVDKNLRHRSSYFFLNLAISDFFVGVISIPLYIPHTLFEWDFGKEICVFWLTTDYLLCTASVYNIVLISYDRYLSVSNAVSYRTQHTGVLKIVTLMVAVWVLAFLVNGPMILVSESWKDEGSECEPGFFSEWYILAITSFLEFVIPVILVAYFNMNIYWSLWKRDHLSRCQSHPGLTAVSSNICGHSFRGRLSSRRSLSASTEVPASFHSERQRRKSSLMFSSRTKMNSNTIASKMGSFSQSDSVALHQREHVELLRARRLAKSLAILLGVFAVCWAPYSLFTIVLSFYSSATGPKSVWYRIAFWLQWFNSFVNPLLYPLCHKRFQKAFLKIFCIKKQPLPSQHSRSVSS
Structures can show the parent of a compound that is named as a salt.
Write it as a number; the unit nM goes unstated.

Entry under review: CN1CCN(c2nc(NCCO)nc3c2oc2ccc(Cl)cc23)CC1 . Reported Ki?
4.3

Entry under review: CN1CCN(c2nc(N)nc3c2oc2ccc(C(F)(F)F)cc23)CC1 [Example 139, trifluoroacetic acid salt] . Reported Ki?
0.8

Entry under review: CN1CCN(c2nc(N)nc3c2oc2cccc(C(F)(F)F)c23)CC1 [Example 91, citrate salt] . Reported Ki?
50

Entry under review: CNC1CCN(c2nc(NCCO)nc3c2oc2ccc(Cl)cc23)C1 (centres unmarked) . Reported Ki?
210

Entry under review: CCN[C@H]1CCCN(c2nc(N)nc3c2oc2ccc(Cl)cc23)C1 [Example 72, trifluoroacetic acid salt] . Reported Ki?
343

Entry under review: CN1CCCN(c2nc(N)nc3c2oc2ccc(Cl)cc23)CC1 . Reported Ki?
0.74

Entry under review: CN[C@H]1CCN(c2nc(N)nc3c2sc2ccc(Br)cc23)C1 [Example 47, hydrochloride salt] . Reported Ki?
100

---

target: human histamine H4 receptor (Homo sapiens, UniProt Q9H3N8); construct: expressed in transfected cells; host or cells: SK-N-MC cells or COS7 cells, transiently transfected; cell membranes used; assay: Binding Assay on Recombinant Human Histamine H4 Receptor
pKi: −log10 of the molar value. Structures can show the parent of a compound that is named as a salt.
Criterion: pKi meeting or surpassing 7. Met: True. Not met: False.

Identify whether the reported pKi of the following molecule is 7 or greater: Nc1nc(N2CC3CCCNC3C2)c2sc3cc(Br)ccc3c2n1 (centres unmarked) [Example 46, trifluoroacetic acid salt]
True

Identify whether the reported pKi of the following molecule is 7 or greater: Nc1nc(N2CCN3CCCC3C2)c2oc3ccc(Br)cc3c2n1 (centres unmarked) [Example 20, trifluoroacetic acid salt]
True

Identify whether the reported pKi of the following molecule is 7 or greater: Nc1nc(N2C[C@@H]3C[C@H]2CN3)c2sc3cc(Cl)ccc3c2n1 [Example 62, trifluoroacetic acid salt]
False

Identify whether the reported pKi of the following molecule is 7 or greater: Nc1nc(N2CCN3CCCC3C2)c2oc3ccc(Cl)cc3c2n1 (centres unmarked) [Example 69, trifluoroacetic acid salt]
True

Identify whether the reported pKi of the following molecule is 7 or greater: CN1C[C@@H]2C[C@H]1CN2c1nc(N)nc2c1oc1ccc(Cl)cc12 [Example 106, trifluoroacetic acid salt]
True

Identify whether the reported pKi of the following molecule is 7 or greater: Nc1nc(N2C[C@H]3CCCN[C@H]3C2)c2oc3ccc(Cl)cc3c2n1 [Example 82, citrate salt]
True

Identify whether the reported pKi of the following molecule is 7 or greater: Nc1nc(N2CC3CCCNC3C2)c2sc3ccc(Br)cc3c2n1 (centres unmarked) [Example 45, hydrochloride salt]
True

Identify whether the reported pKi of the following molecule is 7 or greater: Nc1nc(N2C[C@@H]3C[C@H]2CN3)c2sc3ccc(Cl)cc3c2n1 [Example 68, trifluoroacetic acid salt]
False

Identify whether the reported pKi of the following molecule is 7 or greater: Nc1nc(N2CC3CCCNC3C2)c2sc3ccc(Cl)cc3c2n1 (centres unmarked) [Example 64, trifluoroacetic acid salt]
True

Identify whether the reported pKi of the following molecule is 7 or greater: Nc1nc(N2CC3CCNC3C2)c2oc3ccc(F)cc3c2n1 (centres unmarked) [Example 71, trifluoroacetic acid salt]
True

Identify whether the reported pKi of the following molecule is 7 or greater: Nc1nc(N2CCN3CCCC3C2)c2oc3ccc(F)cc3c2n1 (centres unmarked) [Example 40, trifluoroacetic acid salt]
True

Identify whether the reported pKi of the following molecule is 7 or greater: Nc1nc(N2C[C@@H]3C[C@H]2CN3)c2oc3ccc(Cl)cc3c2n1 [Example 11]
True

Identify whether the reported pKi of the following molecule is 7 or greater: Nc1nc(N2CC3CCCNC3C2)c2oc3ccc(Cl)cc3c2n1 (centres unmarked) [Example 9]
True

Identify whether the reported pKi of the following molecule is 7 or greater: Nc1nc(N2CC3CCNC3C2)c2oc3ccc(Cl)cc3c2n1 (centres unmarked) [Example 80, trifluoroacetic acid salt]
True

Identify whether the reported pKi of the following molecule is 7 or greater: Nc1nc(N2CC3CCC(C2)N3)c2oc3ccc(Cl)cc3c2n1 [Example 97, trifluoroacetic acid salt]
True

Identify whether the reported pKi of the following molecule is 7 or greater: Nc1nc(N2C[C@@H]3CCCN[C@@H]3C2)c2oc3ccc(Cl)cc3c2n1 [Example 83, citrate salt]
True

Identify whether the reported pKi of the following molecule is 7 or greater: Nc1nc(N2C[C@@H]3C[C@H]2CN3)c2sc3ccc(Br)cc3c2n1 [Example 49, hydrochloride salt]
False
